So I've got Ki readings for caspase-8 (Homo sapiens, UniProt Q14790), take a look.

Query string: // map CC(=O)Nc1ccc(C(=O)N[C@H](C(=O)N2CCC[C@H]2C(=O)N[C@H](C=O)CC(=O)O)C(C)(C)C)c(F)c1 to recorded Ki (system: caspase-8 (Homo sapiens, UniProt Q14790))
Sequence (Q14790 217-374 limits assumed, species assumed): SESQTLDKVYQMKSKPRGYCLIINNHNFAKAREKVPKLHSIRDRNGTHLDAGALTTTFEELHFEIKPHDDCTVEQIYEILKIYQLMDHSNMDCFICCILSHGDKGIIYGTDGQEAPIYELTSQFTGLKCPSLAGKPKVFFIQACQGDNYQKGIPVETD
Sequence (Q14790 385-479 limits assumed, species assumed): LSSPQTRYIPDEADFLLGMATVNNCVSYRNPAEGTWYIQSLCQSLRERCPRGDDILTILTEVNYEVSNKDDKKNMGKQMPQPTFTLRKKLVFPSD
Result string: < 0.01 µM

Query string: Provide the documented Ki with caspase-8 (Homo sapiens, UniProt Q14790) as the system for CC(C)[C@H](NC(=O)c1cccc(Cl)c1Cl)C(=O)N1CCC[C@H]1C(=O)N[C@H](C=O)CC(=O)O
Result string: 0.01 to 0.02 µM

Query string: Entry CC(C)(C)[C@H](NC(=O)c1ccc(N)c(Cl)c1)C(=O)N1[C@@H]2CC[C@@H](C2)[C@H]1C(=O)N[C@H](C=O)CC(=O)O (stereo in doubt) , system caspase-8 (Homo sapiens, UniProt Q14790): what Ki was measured?
Result string: < 0.01 µM

Query string: Recall the recorded Ki for COCc1ccc(C(=O)N[C@H](C(=O)N2CCC[C@H]2C(=O)N[C@H](C=O)CC(=O)O)C(C)(C)C)c(Cl)c1 with caspase-8 (Homo sapiens, UniProt Q14790) and state it.
Result string: < 0.01 µM

Query string: GET /values?readout=Ki&system=caspase-8 (Homo sapiens, UniProt Q14790)&item= CC(=O)Nc1ccc(C(=O)N[C@H](C(=O)N2[C@@H]3CC[C@@H](C3)[C@H]2C(=O)N[C@H](C=O)CC(=O)O)C(C)(C)C)cc1Cl (stereo in doubt)
Result string: 0.01 to 0.02 µM

Query string: Lab note: need Ki for CC(C)Oc1ccc(C(=O)N[C@H](C(=O)N2CCC[C@H]2C(=O)N[C@H](C=O)CC(=O)O)C(C)C)c(Cl)c1 on caspase-8 (Homo sapiens, UniProt Q14790), anyone have it?
Result string: 0.021 to 0.03 µM

Query string: // fetch caspase-8 (Homo sapiens, UniProt Q14790) Ki for CCC(=O)Nc1ccc(C(=O)N[C@H](C(=O)N2[C@@H]3CC[C@@H](C3)[C@H]2C(=O)N[C@H](C=O)CC(=O)O)C(C)(C)C)cc1Cl (stereo in doubt)
Result string: 0.01 to 0.02 µM

Query string: API: value(readout=Ki, system=caspase-8 (Homo sapiens, UniProt Q14790)) for record Cc1c(N)cccc1C(=O)N[C@H](C(=O)N1CCC[C@H]1C(=O)N[C@H](C=O)CC(=O)O)C(C)C
Result string: 0.01 to 0.02 µM

Query string: GET /values?readout=Ki&system=caspase-8 (Homo sapiens, UniProt Q14790)&item= COc1cccc(C(=O)N[C@@H](CC(F)(F)F)C(=O)N2CCC[C@H]2C(=O)N[C@H](C=O)CC(=O)O)c1C
Result string: 0.021 to 0.03 µM

Query string: # value lookup — system caspase-8 (Homo sapiens, UniProt Q14790), readout Ki, item CC(C)[C@H](NC(=O)c1cc(Cl)ccc1Cl)C(=O)N1CCC[C@H]1C(=O)N[C@H](C=O)CC(=O)O
Result string: 0.01 to 0.02 µM

Query string: Record lookup: for caspase-8 (Homo sapiens, UniProt Q14790), what Ki belongs to CC(C)(C)[C@H](NC(=O)c1cccc(Oc2ccccc2)c1Cl)C(=O)N1CCC[C@H]1C(=O)N[C@H](C=O)CC(=O)O ?
Result string: < 0.01 µM

Query string: Give recorded Ki with caspase-8 (Homo sapiens, UniProt Q14790) for the following molecule: COC(=O)Nc1ccc(C(=O)N[C@H](C(=O)N2CCC[C@H]2C(=O)N[C@H](C=O)CC(=O)O)C(C)(C)C)c(Cl)c1
Result string: < 0.01 µM

Query string: Given the entry COc1cccc(C(=O)N[C@H](C(=O)N2CCC[C@H]2C(=O)N[C@H](C=O)CC(=O)O)C(C)C)c1C , what Ki was observed with caspase-8 (Homo sapiens, UniProt Q14790)?
Result string: < 0.01 µM

Query string: Value wanted: Ki (caspase-8 (Homo sapiens, UniProt Q14790)) of entry COc1cccc(C(=O)N[C@H](C(=O)N2[C@@H]3CC[C@@H](C3)[C@H]2C(=O)NC(C=O)CC(=O)O)C(C)(C)C)c1C (stereo in doubt)
Result string: < 0.01 µM

Query string: Request - read-out Ki | tested on caspase-8 (Homo sapiens, UniProt Q14790) | molecule CC(C)(C)[C@H](NC(=O)c1ccccc1C(F)(F)F)C(=O)N1CCC[C@H]1C(=O)N[C@H](C=O)CC(=O)O
Result string: < 0.01 µM
